- system: BRD4 (BDII_E352-M457) (Homo sapiens (Human), UniProt O60885)
- procedure-text: TR-FRET bromodomain binding assay, BRD4 second bromodomain
- measurement-setup: His-tagged BD2, Alexa647-labeled probe 30 nM
- Description: A time-resolved fluorescence resonance energy transfer (TR-FRET) assay was used to determine the affinities of compounds of the Examples listed in Table 1 for each bromodomain of BRD4. […] Compound dilution series were prepared in DMSO via a 3-fold serial dilution from 2.5 mM to 42 nM. […] After a one-hour incubation at room temperature, TR-FRET ratios were determined using an Envision multilabel plate reader (Ex 340, Em […]). […]
Label Condition met when Ki < 4 nM; otherwise Condition not met.

Solved cases below.
{"columns": ["compound", "class"],
 "data": [
  ["Cn1cc(-c2cc(S(C)(=O)=O)ccc2Oc2cccc(NS(=O)(=O)c3cccc([N+](=O)[O-])c3)c2)c2cc[nH]c2c1=O [Example 51]", "Condition met"],
  ["Cn1cc(-c2cc(S(C)(=O)=O)ccc2Oc2cccc(NS(=O)(=O)c3ccc([N+](=O)[O-])cc3)c2)c2cc[nH]c2c1=O [Example 43]", "Condition met"],
  ["CCNC(=O)c1cc2c(-c3ccc(C(=O)N(CC#N)C(C)Cc4ccccc4)cc3Oc3c(C)cccc3C)cn(C)c(=O)c2[nH]1 (centres unmarked) [Example 166]", "Condition not met"],
  ["CN(C)CCNC(=O)c1cccc(Oc2ccc(S(C)(=O)=O)cc2-c2cn(C)c(=O)c3[nH]ccc23)c1 [Example 33]", "Condition met"],
  ["COc1cccc(CNc2cccc(Oc3ccc(S(C)(=O)=O)cc3-c3cn(C)c(=O)c4[nH]ccc34)c2)c1 [Example 66]", "Condition met"],
  ["CC(=O)Nc1ccc(CN2CCC(Nc3ccc(S(C)(=O)=O)cc3-c3cn(C)c(=O)c4[nH]ccc34)CC2)cc1 [Example 87]", "Condition not met"],
  ["CCNC(=O)/C=C/c1cc2c(-c3cc(S(=O)(=O)CC)ccc3Oc3c(C)cccc3C)cn(C)c(=O)c2[nH]1 [Example 134]", "Condition met"],
  ["CCS(=O)(=O)Nc1cc(-c2cn(C)c(=O)c3[nH]ccc23)c(Oc2ccc(F)cc2F)cc1CNCCO [Example 13]", "Condition not met"]
]}

Input: In the record for COc1cccc(S(=O)(=O)Nc2cccc(Oc3ccc(S(C)(=O)=O)cc3-c3cn(C)c(=O)c4[nH]ccc34)c2)c1 [Example 42] , is Ki less than 4 nM?
Output: Condition met

Input: # TODO verify Ki < 4 nM strictly for this compound: CCS(=O)(=O)c1ccc(OC2CCCCC2)c(-c2cn(C)c(=O)c3[nH]c(-c4cnn(C5CCNCC5)c4)cc23)c1 [Example 149]
Output: Condition met

Input: Consider the compound COCCNc1cccc(Oc2ccc(S(C)(=O)=O)cc2-c2cn(C)c(=O)c3[nH]ccc23)c1 [Example 64] . Is its Ki strictly less than 4 nM?
Output: Condition met

Input: Dear colleague, could you confirm whether Ki of Cn1cc(-c2cc(S(C)(=O)=O)ccc2Oc2cccc(NCCC3CCCC3)c2)c2cc[nH]c2c1=O [Example 81] falls below 4 nM? Thanks.
Output: Condition not met

Input: Criterion: Ki strictly below 4 nM. Is it met by CCNC(=O)c1cc2c(-c3cc(S(=O)(=O)CC)ccc3Oc3c(C)cccc3Cn3ccccc3=O)cn(C)c(=O)c2[nH]1 [Example 158] ?
Output: Condition not met

Attribution: patent US9957263B2
